Origin of values: patent US20170080009A1

System: Molt-4 cells
TEST: Cell viability assay, Molt-4 cells
Format: cell-based, human
CONDITION_DETAILS: 72 hour exposure prior to viability
PROPERTY: IC50

Problem: Using the record for O=c1[nH]cc(F)c(=O)[nH]1 [5-FU, reference compound] , report its IC50.
Result: 4.96 µM
